- TEST_TARGET: Squalene synthase (Rattus norvegicus)
- Sequence (Q02769 whole entry): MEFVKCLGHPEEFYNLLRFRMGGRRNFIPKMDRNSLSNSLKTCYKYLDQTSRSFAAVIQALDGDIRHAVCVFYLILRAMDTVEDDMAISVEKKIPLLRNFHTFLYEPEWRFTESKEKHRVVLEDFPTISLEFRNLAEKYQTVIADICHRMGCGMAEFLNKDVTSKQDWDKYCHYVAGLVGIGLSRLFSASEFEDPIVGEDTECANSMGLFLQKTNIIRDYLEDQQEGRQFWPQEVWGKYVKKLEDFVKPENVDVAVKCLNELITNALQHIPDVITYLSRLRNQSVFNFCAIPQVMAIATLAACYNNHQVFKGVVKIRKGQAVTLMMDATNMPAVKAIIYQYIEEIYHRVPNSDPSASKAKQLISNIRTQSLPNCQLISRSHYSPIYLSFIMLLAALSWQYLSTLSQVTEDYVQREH
- PROTOCOL: Inhibitory activity against rat hepatic squalene synthase
Please use met for IC50 under 20 µM and not met for everything else, ties included.

Q: Could you please tell me whether IC50 recorded for C[N+](C)(CCCCCCCCc1ccccc1)CCCCS(=O)(=O)[O-] is less than 20 µM?
A: met

Q: Could you please tell me whether IC50 recorded for C[N+](C)(CCCCCCc1ccccc1)CCCCS(=O)(=O)[O-] is less than 20 µM?
A: not met

Q: Could you please tell me whether IC50 recorded for C[N+](C)(CCCCCCc1ccc(-c2ccccc2)cc1)CCCCS(=O)(=O)[O-] is less than 20 µM?
A: not met

Q: Could you please tell me whether IC50 recorded for CC(C)=CCC/C(C)=C/CC/C(C)=C/C[N+](C)(C)CCCCS(=O)(=O)[O-] is less than 20 µM?
A: met

Q: Could you please tell me whether IC50 recorded for C[N+](C)(CCCCCc1ccc(-c2ccccc2)cc1)CCCCS(=O)(=O)[O-] is less than 20 µM?
A: met
